Test system: C. elegans complex IV (cytochrome C oxidase)
TEST_SUMMARY: In vitro complex IV activity assay, C. elegans mitochondria
Format: biochemical, Caenorhabditis elegans
CONDITION_NOTES: 100 μM of NPD compound; C. elegans mitochondria; mean of four biological replicates
Method: Mitochondria were isolated from the following free-living nematode strains: C. elegans—N2, CB3474, ECA882, ECA917, ECA1075, ECA1080; C. briggsae—AF16; P. pacificus—PS312; and P. hermaphrodita—B178. With the exception of the P. hermaphrodita strain B178, adult worms of each strain were grown in bulk through liquid culture to obtain mitochondria in sufficient quantities. […]
ASSAY_ENDPOINT: Percent in vitro activity, Complex IV (Mean)

COc1ccc(N=c2cc(-c3ccc(OC)cc3)oc3ccc(O)cc23)cc1 : 96.041%
COc1cc2c(cc1OC)C(C(C)c1ccc(CC(C)C)cc1)=NCC2 (stereo not drawn) : 74.568%
COc1cc2c(cc1OC)C(c1ccc(-c3ccc(Cl)c(Cl)c3)o1)=NCC2 : 81.064%

Task item: Value lookup for Percent in vitro activity, Complex IV (Mean); key = CCCCCC[C@H]1C(=O)O[C@H](C)[C@H](NC(=O)c2cccc(NC=O)c2O)C(=O)O[C@@H](C)[C@@H]1OC(=O)CC(C)C [Antimycin A, reference compound]
Reply: 94.002%

Task item: Which Percent in vitro activity, Complex IV (Mean) reading was recorded for the molecule O=C(NCCc1ccc(Cl)cc1)c1ccccc1C(F)(F)F ?
Reply: 88.998%

Task item: Entry O=C1OC(c2ccccc2)=NC1=CC=Cc1ccccc1 (mixture of isomers) : reported Percent in vitro activity, Complex IV (Mean) = ?
Reply: 108.045%

Task item: Percent in vitro activity, Complex IV (Mean) for O=C(/C=C/c1ccccc1)/C=C/c1ccccc1 ?
Reply: 92.285%

Task item: Returns the measured Percent in vitro activity, Complex IV (Mean) for the input molecule. Input: COc1ccc(-c2cc(=Nc3ccccc3N)c3ccccc3o2)cc1
Reply: 115.383%

Task item: Need Percent in vitro activity, Complex IV (Mean), item Cc1cc(O)c(C(=O)/C=C/c2ccc(C(C)C)cc2)c(=O)o1
Reply: 26.823%

Task item: I am curious: what Percent in vitro activity, Complex IV (Mean) value has been reported for Cc1cc(O)c(C(=O)/C=C/c2ccccc2)c(=O)o1 ?
Reply: 97.721%

Task item: Query: Percent in vitro activity, Complex IV (Mean); subject: C=C(C)[C@H]1Cc2c(ccc3c2O[C@@H]2COc4cc(OC)c(OC)cc4[C@@H]2C3=O)O1 [Rotenone, reference compound]
Reply: 99.566%

###

TARGET_UNDER_TEST: C. elegans (N2) complex I (NADH:ubiquinone oxidoreductase) (Caenorhabditis elegans, UniProt P24887+Q93873+Q94360)
Sequence (Q94360 17-199): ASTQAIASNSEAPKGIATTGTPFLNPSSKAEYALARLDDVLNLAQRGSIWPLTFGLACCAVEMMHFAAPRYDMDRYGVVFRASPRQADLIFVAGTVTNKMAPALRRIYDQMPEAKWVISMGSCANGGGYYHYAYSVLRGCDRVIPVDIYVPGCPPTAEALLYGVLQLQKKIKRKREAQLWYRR
Sequence (P24887 whole entry): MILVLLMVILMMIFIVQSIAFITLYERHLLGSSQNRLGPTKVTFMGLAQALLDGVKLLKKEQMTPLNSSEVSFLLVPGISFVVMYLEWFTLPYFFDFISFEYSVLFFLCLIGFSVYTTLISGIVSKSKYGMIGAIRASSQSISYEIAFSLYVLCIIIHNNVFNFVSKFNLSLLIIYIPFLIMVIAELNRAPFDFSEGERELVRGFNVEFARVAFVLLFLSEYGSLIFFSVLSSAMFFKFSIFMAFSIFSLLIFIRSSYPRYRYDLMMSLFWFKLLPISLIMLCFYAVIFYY
Sequence (Q93873 31-482): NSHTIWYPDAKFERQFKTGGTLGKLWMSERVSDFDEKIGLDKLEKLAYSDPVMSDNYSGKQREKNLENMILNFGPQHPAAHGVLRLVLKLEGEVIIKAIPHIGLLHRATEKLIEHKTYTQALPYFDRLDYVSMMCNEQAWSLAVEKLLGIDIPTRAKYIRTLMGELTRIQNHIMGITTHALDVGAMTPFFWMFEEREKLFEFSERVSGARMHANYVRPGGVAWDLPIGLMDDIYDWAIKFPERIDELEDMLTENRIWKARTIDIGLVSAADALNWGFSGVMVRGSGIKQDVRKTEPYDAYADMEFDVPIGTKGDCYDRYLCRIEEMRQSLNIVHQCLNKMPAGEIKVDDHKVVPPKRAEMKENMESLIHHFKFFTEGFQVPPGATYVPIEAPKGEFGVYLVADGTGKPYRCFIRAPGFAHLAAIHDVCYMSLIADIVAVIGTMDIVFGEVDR
TEST_SUMMARY: biochemical
Format: biochemical
CONDITION_NOTES: 1.5 µM; wild-type C. elegans mitochondria; mean of replicates; read-out: percent (%) in vitro complex I activity relative to solvent control
ASSAY_ENDPOINT: remaining activity at 1.5 µM

Use these answered entries as a reference point.
COC(=O)Nc1nc2ccc(C(=O)c3ccccc3)cc2[nH]1 [mebendazole, reference compound] : 101%
COc1cc2c(cc1OC)C(/C=C/c1ccc(N(C)C)cc1)=NCC2 : 100%
COc1cc2c(cc1OC)C(c1ccc(-c3ccc(Cl)c(Cl)c3)o1)=NCC2 : 94.3%
COc1cc2c(cc1OC)C(C(C)c1ccc(CC(C)C)cc1)=NCC2 (stereo not shown) : 78.6%
COc1ccc(Cc2nccc3cc(OC)c(OC)cc23)cc1OC [Papaverine, reference compound] : 81.8%

Task item: # input compound: CC(C)Cc1ccc(C(C)c2nc3ccccc3n2C)cc1 (stereo not shown) ; wanted: its remaining activity at 1.5 µM
Reply: 72.5%

Task item: Entry COC(=O)Nc1nc2ccc(Sc3ccccc3)cc2[nH]1 [fenbendazole, reference compound] has what remaining activity at 1.5 µM?
Reply: 101%
